SYSTEM NAME: T1, TNFR1 (Homo sapiens, UniProt P19438)
T1 chain: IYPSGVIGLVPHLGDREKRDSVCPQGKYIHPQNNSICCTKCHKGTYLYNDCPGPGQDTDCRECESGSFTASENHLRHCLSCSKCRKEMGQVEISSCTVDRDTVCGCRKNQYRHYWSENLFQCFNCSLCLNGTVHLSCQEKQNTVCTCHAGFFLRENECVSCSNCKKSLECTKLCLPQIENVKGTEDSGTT
EXPERIMENT SUMMARY: yeast display SC50
MEASURE: apparent Kd (screen) (nM)
All answers are understood in nM, so give the number only.

Worked examples, 3 binders total:
Briefly, apparent Kd (screen) measured for Q34R (designed binder) MTLQELLREEALRRAEAEAFRYALELLAEKFPERKEYLLDLAEEIESQIRSLSGVDVEDVRKFLDKEWAWVKELLAEHPAELAEVEAARAARLAELRAEVEAKVAA : 0.718

apparent Kd (screen) reading for Q34A (designed binder) MTLQELLREEALRRAEAEAFRYALELLAEKFPEAKEYLLDLAEEIESQIRSLSGVDVEDVRKFLDKEWAWVKELLAEHPAELAEVEAARAARLAELRAEVEAKVAA : 0.593

Record P32I (designed binder) MTLQELLREEALRRAEAEAFRYALELLAEKFIEQKEYLLDLAEEIESQIRSLSGVDVEDVRKFLDKEWAWVKELLAEHPAELAEVEAARAARLAELRAEVEAKVAA . Reported apparent Kd (screen): 0.49

Further cases:
Sample S51R (designed binder) MTLQELLREEALRRAEAEAFRYALELLAEKFPEQKEYLLDLAEEIESQIRRLSGVDVEDVRKFLDKEWAWVKELLAEHPAELAEVEAARAARLAELRAEVEAKVAA ; apparent Kd (screen) observed: 1.05

// field: apparent Kd (screen); key: A102I (designed binder) MTLQELLREEALRRAEAEAFRYALELLAEKFPEQKEYLLDLAEEIESQIRSLSGVDVEDVRKFLDKEWAWVKELLAEHPAELAEVEAARAARLAELRAEVEIKVAA ; value = 0.956

Note to self: apparent Kd (screen) recorded for W68F (designed binder) MTLQELLREEALRRAEAEAFRYALELLAEKFPEQKEYLLDLAEEIESQIRSLSGVDVEDVRKFLDKEFAWVKELLAEHPAELAEVEAARAARLAELRAEVEAKVAA was 0.539

Entry D59F (designed binder) MTLQELLREEALRRAEAEAFRYALELLAEKFPEQKEYLLDLAEEIESQIRSLSGVDVEFVRKFLDKEWAWVKELLAEHPAELAEVEAARAARLAELRAEVEAKVAA , apparent Kd (screen) reported as 12.5

Record summary for E25T (designed binder) MTLQELLREEALRRAEAEAFRYALTLLAEKFPEQKEYLLDLAEEIESQIRSLSGVDVEDVRKFLDKEWAWVKELLAEHPAELAEVEAARAARLAELRAEVEAKVAA : reported apparent Kd (screen) = 0.405

Per the record, M1C (designed binder) CTLQELLREEALRRAEAEAFRYALELLAEKFPEQKEYLLDLAEEIESQIRSLSGVDVEDVRKFLDKEWAWVKELLAEHPAELAEVEAARAARLAELRAEVEAKVAA has apparent Kd (screen) of 0.718

Entry V60D (designed binder) MTLQELLREEALRRAEAEAFRYALELLAEKFPEQKEYLLDLAEEIESQIRSLSGVDVEDDRKFLDKEWAWVKELLAEHPAELAEVEAARAARLAELRAEVEAKVAA , apparent Kd (screen) reported as 1.05

Kindly note the recorded apparent Kd (screen) for D59Y (designed binder) MTLQELLREEALRRAEAEAFRYALELLAEKFPEQKEYLLDLAEEIESQIRSLSGVDVEYVRKFLDKEWAWVKELLAEHPAELAEVEAARAARLAELRAEVEAKVAA , which is 3

According to the records, this binder E67Q (designed binder) MTLQELLREEALRRAEAEAFRYALELLAEKFPEQKEYLLDLAEEIESQIRSLSGVDVEDVRKFLDKQWAWVKELLAEHPAELAEVEAARAARLAELRAEVEAKVAA displays apparent Kd (screen) of 11.4

The reported value for L75F (designed binder) MTLQELLREEALRRAEAEAFRYALELLAEKFPEQKEYLLDLAEEIESQIRSLSGVDVEDVRKFLDKEWAWVKELFAEHPAELAEVEAARAARLAELRAEVEAKVAA in terms of apparent Kd (screen) is 1.27

Form field apparent Kd (screen), entry A80E (designed binder) MTLQELLREEALRRAEAEAFRYALELLAEKFPEQKEYLLDLAEEIESQIRSLSGVDVEDVRKFLDKEWAWVKELLAEHPEELAEVEAARAARLAELRAEVEAKVAA : 0.49

Per the record, Y22I (designed binder) MTLQELLREEALRRAEAEAFRIALELLAEKFPEQKEYLLDLAEEIESQIRSLSGVDVEDVRKFLDKEWAWVKELLAEHPAELAEVEAARAARLAELRAEVEAKVAA has apparent Kd (screen) of 0.956

The recorded apparent Kd (screen) for E77V (designed binder) MTLQELLREEALRRAEAEAFRYALELLAEKFPEQKEYLLDLAEEIESQIRSLSGVDVEDVRKFLDKEWAWVKELLAVHPAELAEVEAARAARLAELRAEVEAKVAA is 0.593
